System: Salmonella enterica serovar Enteritidis MH91989
Type: cell-based
ASSAY CONTEXT: serovar Enteritidis MH91989, 1 h
Where a SMILES comes first, the peptide text is derived from it.
Reported values of MIC for individual entries
Kindly answer with a numeric value in µM, unit omitted.

COMPOUND	ENDPOINT UNIT	MIC
CC(C)C[C@H](NC(=O)[C@H](CCCNC(=N)N)NC(=O)[C@@H]1CCCN1C(=O)[C@H](CCCNC(=N)N)NC(=O)[C@@H]1CCCN1C(=O)[C@@H]1CCCN1C(=O)[C@H](CCCNC(=N)N)NC(=O)[C@@H]1CCCN1C(=O)[C@H](CCC(N)=O)NC(=O)[C@@H]1CCCN1C(=O)[C@H](CCCCN)NC(=O)[C@H](Cc1ccc(O)cc1)NC(=O)[C@@H](NC(=O)[C@@H]1CCCN1C(=O)[C@H](CCCCN)NC(=O)[C@H](CC(N)=O)NC(=O)[C@H](CC(N)=O)NC(=O)CN)C(C)C)C(=O)O [Api_R4K/I8K/H15R] (H-GNNKPVYKPQPRPPRPRL-OH)	µM	0.133
CC(C)C[C@H](NC(=O)[C@H](CCCNC(=N)N)NC(=O)[C@@H]1CCCN1C(=O)[C@H](CCCNC(=N)N)NC(=O)[C@@H]1CCCN1C(=O)[C@@H]1CCCN1C(=O)[C@H](CCCNC(=N)N)NC(=O)[C@@H]1CCCN1C(=O)[C@H](CCC(N)=O)NC(=O)[C@@H]1CCCN1C(=O)[C@H](CCCNC(=N)N)NC(=O)[C@H](Cc1ccc(O)cc1)NC(=O)[C@@H](NC(=O)[C@@H]1CCCN1C(=O)[C@H](CCCCN)NC(=O)[C@H](CC(N)=O)NC(=O)[C@H](CC(N)=O)NC(=O)CN)C(C)C)C(=O)O [Api_R4K/I8R/H15R] (H-GNNKPVYRPQPRPPRPRL-OH)	µM	0.096
CC[C@H](C)[C@H](NC(=O)[C@H](Cc1ccc(O)cc1)NC(=O)[C@@H](NC(=O)[C@@H]1CCCN1C(=O)[C@H](CCCCN)NC(=O)[C@H](CC(N)=O)NC(=O)[C@H](CC(N)=O)NC(=O)CN)C(C)C)C(=O)N1CCC[C@H]1C(=O)N[C@@H](CCC(N)=O)C(=O)N1CCC[C@H]1C(=O)N[C@@H](CCCNC(=N)N)C(=O)N1CCC[C@H]1C(=O)N1CCC[C@H]1C(=O)N[C@@H](CCCNC(=N)N)C(=O)N1CCC[C@H]1C(=O)N[C@@H](CCCNC(=N)N)C(=O)N[C@@H](CC(C)C)C(=O)O [Api_R4K/H15R] (H-GNNKPVYIPQPRPPRPRL-OH)	µM	0.067
CC(C)C[C@H](NC(=O)[C@H](CCCNC(=N)N)NC(=O)[C@@H]1CCCN1C(=O)[C@H](CCCNC(=N)N)NC(=O)[C@@H]1CCCN1C(=O)[C@@H]1CCCN1C(=O)[C@H](CCCNC(=N)N)NC(=O)[C@@H]1CCCN1C(=O)[C@H](CCC(N)=O)NC(=O)[C@@H]1CCCN1C(=O)[C@H](CCCNC(=N)N)NC(=O)[C@H](Cc1ccc(O)cc1)NC(=O)[C@@H](NC(=O)[C@@H]1CCCN1C(=O)[C@H](CCCNC(=N)N)NC(=O)[C@H](CC(N)=O)NC(=O)[C@H](CC(N)=O)NC(=O)CN)C(C)C)C(=O)O [Api_I8R/H15R] (H-GNNRPVYRPQPRPPRPRL-OH)	µM	0.067

Prompt: Consider the compound CC[C@H](C)[C@H](NC(=O)[C@H](CCCNC(=N)N)NC(=O)[C@@H](N)CCCNC(=N)N)C(=O)N[C@@H](CCCNC(=N)N)C(=O)N1CCC[C@H]1C(=O)N[C@@H](CCCNC(=N)N)C(=O)N1CCC[C@H]1C(=O)N1CCC[C@H]1C(=O)N[C@@H](CCCNC(=N)N)C(=O)N[C@@H](CC(C)C)C(=O)N1CCC[C@H]1C(=O)N[C@@H](CCCNC(=N)N)C(=O)N1CCC[C@H]1C(=O)N[C@@H](CCCNC(=N)N)C(=O)N1CCC[C@H]1C(=O)N[C@@H](CCCNC(=N)N)C(=O)O [Bac_WT, reference compound] (H-RRIRPRPPRLPRPRPR-OH) and give its measured MIC.
Completion: 0.120

Prompt: Consider the compound CC[C@H](C)[C@H](NC(=O)[C@H](CCCNC(=N)N)NC(=O)[C@@H](N)CCCNC(=N)N)C(=O)N[C@@H](CCCCN)C(=O)N1CCC[C@H]1C(=O)N[C@@H](CCCNC(=N)N)C(=O)N1CCC[C@H]1C(=O)N1CCC[C@H]1C(=O)N[C@@H](CCCNC(=N)N)C(=O)N[C@@H](CC(C)C)C(=O)N1CCC[C@H]1C(=O)N[C@@H](CCCNC(=N)N)C(=O)N1CCC[C@H]1C(=O)N[C@@H](CCCNC(=N)N)C(=O)N1CCC[C@H]1C(=O)N[C@@H](CCCCN)C(=O)O [Bac_R4K/R16K] (H-RRIKPRPPRLPRPRPK-OH) and give its measured MIC.
Completion: 0.157

Prompt: Consider the compound CC[C@H](C)[C@H](NC(=O)[C@H](CCCNC(=N)N)NC(=O)[C@@H](N)CCCNC(=N)N)C(=O)N[C@@H](CCCNC(=N)N)C(=O)N[C@@H](CCCCN)C(=O)N[C@@H](CCCNC(=N)N)C(=O)N1CCC[C@H]1C(=O)N1CCC[C@H]1C(=O)N[C@@H](CCCNC(=N)N)C(=O)N[C@@H](CC(C)C)C(=O)N1CCC[C@H]1C(=O)N[C@@H](CCCNC(=N)N)C(=O)N1CCC[C@H]1C(=O)N[C@@H](CCCNC(=N)N)C(=O)N1CCC[C@H]1C(=O)N[C@@H](CCCCN)C(=O)O [Bac_P5K/R16K] (H-RRIRKRPPRLPRPRPK-OH) and give its measured MIC.
Completion: 0.120

Prompt: Consider the compound CC[C@H](C)[C@H](NC(=O)[C@H](CCCNC(=N)N)NC(=O)[C@@H](N)CCCNC(=N)N)C(=O)N[C@@H](CCCCN)C(=O)N[C@@H](CCCCN)C(=O)N[C@@H](CCCNC(=N)N)C(=O)N1CCC[C@H]1C(=O)N1CCC[C@H]1C(=O)N[C@@H](CCCNC(=N)N)C(=O)N[C@@H](CC(C)C)C(=O)N1CCC[C@H]1C(=O)N[C@@H](CCCNC(=N)N)C(=O)N1CCC[C@H]1C(=O)N[C@@H](CCCNC(=N)N)C(=O)N1CCC[C@H]1C(=O)N[C@@H](CCCCN)C(=O)O [Bac_R4K/P5K/R16K] (H-RRIKKRPPRLPRPRPK-OH) and give its measured MIC.
Completion: 0.167

Prompt: Consider the compound CC(C)C[C@H](NC(=O)[C@H](CCCNC(=N)N)NC(=O)[C@@H]1CCCN1C(=O)[C@H](Cc1c[nH]cn1)NC(=O)[C@@H]1CCCN1C(=O)[C@@H]1CCCN1C(=O)[C@H](CCCNC(=N)N)NC(=O)[C@@H]1CCCN1C(=O)[C@H](CCC(N)=O)NC(=O)[C@@H]1CCCN1C(=O)[C@H](CCCCN)NC(=O)[C@H](Cc1ccc(O)cc1)NC(=O)[C@@H](NC(=O)[C@@H]1CCCN1C(=O)[C@H](CCCCN)NC(=O)[C@H](CC(N)=O)NC(=O)[C@H](CC(N)=O)NC(=O)CN)C(C)C)C(=O)O [Api_R4K/I8K] (H-GNNKPVYKPQPRPPHPRL-OH) and give its measured MIC.
Completion: 0.031
